system: MS2 coat protein; experiment: apparent KD of MS2 coat protein, switch ON state; designed switch direction (-1 OFF switch, 1 ON switch): -1; higher = weaker reporter binding; conditions: FMN input: 0 or 200 uM; Eterna round: R93 (includes R88 designs)
Would you kindly list apparent KD of MS2 coat protein for each of these sequences?
Entry rule: numbers only, all in nM.

**Q:** Requested read-out: apparent KD of MS2 coat protein. Entry: AACUAGUCAGGAUAUACGAACAUGUCAAAAGACGUGAAGGGACAUGAGGAUCACCCAUGUAGAAGGGACUAGCA [74%, Web mod - With 1 less G's]
**A:** 47.1

**Q:** Requested read-out: apparent KD of MS2 coat protein. Entry: AAGAAGCGAGGAUAUACAAAAUAAAAGAAAAGAAAGAAAGAACAUGAGGAUCACCCAUGUAGAAGGCGCAAGAA [Semenkare Nebnuni]
**A:** 34.9

**Q:** Requested read-out: apparent KD of MS2 coat protein. Entry: AAAAAACAUGAGGAUCACCCAUGUAAGGAUAUGCUCGGGCGAAAAAGCAAAAAAAAGAGCAGAAGGUACAAAAA [66%, Wbt, 42]
**A:** 20.5

**Q:** Requested read-out: apparent KD of MS2 coat protein. Entry: AAACCACAUGAGGAUCACCCAUGUCAGGAUAUGAACGAAAAUAAAUAAAAAUAAAAGUUCAGAAGGGACAAAAA [66%, Wbt, 13]
**A:** 42.3

**Q:** Requested read-out: apparent KD of MS2 coat protein. Entry: GUCAGCUGAGGAUAUACAGGUGAGGCCGCAGGACAAAAUAUACAUGAGGAUCACCCAUGUAGAAGGCGGAAGAC [Vegea]
**A:** 33.8

**Q:** Requested read-out: apparent KD of MS2 coat protein. Entry: AGUUAGUCAGGAUAUGCGUGAAGAAUAAAAGAAAUAACAACGCAGAAGGGACAUGAGGAUCACCCAUGUAAACA [May 55]
**A:** 34.2

**Q:** Requested read-out: apparent KD of MS2 coat protein. Entry: AGUAACCAAGGAUAUACAAAACCUGUGAUCGAAUGGAUUUUACAUGAGGAUCACCCAUGUAGAAGGUGGAAAGG [Xeedce]
**A:** 22.7

**Q:** Requested read-out: apparent KD of MS2 coat protein. Entry: AAGAAGUAAGGAUAUCGAAGACUGUCGAAAAGACAGUCGAACGAGAAGGUACAUGAGGAUCACCCAUGUGAGAA [Opal 24]
**A:** 25.5

**Q:** Requested read-out: apparent KD of MS2 coat protein. Entry: AAGAAGUCAGGAUAUACAUGAGGAUCACCCAUGUAAAAGAAAGAAAAGGGAAAGAAAAGUAGAAGGGACAAGAA [Menkheperre Thutmose III]
**A:** 22.5

**Q:** Requested read-out: apparent KD of MS2 coat protein. Entry: AAGAACGAAGGAUAUACAUGAGGAUCACCCAUGUAAAAGAAAGAAGGGAAAGAGAAAAGUAGAAGGUCGAAGAA [Usermaatre Piye]
**A:** 22.2

**Q:** Requested read-out: apparent KD of MS2 coat protein. Entry: GAAGUGUUAGGAUAUCGAUGAAUAAUAAAACAAAGGAACAUUGAGAAGGAACAUGAGGAUCACCCAUGUAUAAC [May 81]
**A:** 27.7

**Q:** Requested read-out: apparent KD of MS2 coat protein. Entry: AAAAAGUCAGGAUAUUCGGAUAGGAAAACGAAAACCUAUCCGAAGAAGGGACAUGAGGAUCACCCAUGUAAAAA [Ecls4-II]
**A:** 48.9

**Q:** Requested read-out: apparent KD of MS2 coat protein. Entry: AAAAAGCGAGGAUAUACGAGUCAAAGAAAAGACAAAAAGGGACAUGAGGAUCACCCAUGUAGAAGGCGCAAAAA [Fiskers exclusion D2 62% 3]
**A:** 30.5

**Q:** Requested read-out: apparent KD of MS2 coat protein. Entry: CUCAAGUAAGGAUAUUUAUGAAAUGAAGUGAAAGAAAAGAAAAAGAAGGUACAUGAGGAUCACCCAUGUUAGAA [EteRNA is fun!]
**A:** 32.8

**Q:** Requested read-out: apparent KD of MS2 coat protein. Entry: GGUUGGCGAGGAUAUACAUGAGGAUCACCCAUGUGAGAGAAAAAAGUGAGACAGAAAAGUAGAAGGCGCUGACG [salish99-ex3-24]
**A:** 65.8

**Q:** Requested read-out: apparent KD of MS2 coat protein. Entry: AAGGGACAUGAGGAUCACCCAUGUGAGGAUAUGCUAUGGAAAAUAAAAAAUAAACAUAGCAGAAGGCAUAAAAA [Mat - Exclusion 1 - Eli mod - D37]
**A:** 64.8

**Q:** Requested read-out: apparent KD of MS2 coat protein. Entry: GGAAAGCGAGGAUAUACAUGAGGAUCACCCAUGUAAAAGAAAAGAAAAGAAAGAAAAUGUAGAAGGCGCAAAAA [Exclusion 3 plus]
**A:** 53.5

**Q:** Requested read-out: apparent KD of MS2 coat protein. Entry: AAGAAGUAAGGAUAUGCUGCUCGUCACAAAAGUGAUGAGUAGCAGAAGGUACAUGAGGAUCACCCAUGUAAAUA [Opal 32]
**A:** 25.3

**Q:** Requested read-out: apparent KD of MS2 coat protein. Entry: CCCAUGUCAGGAUAUCAGUAGUAAAAAAAAAAAAUUACUACUGAGAAGGGACAUGAGGAUCACCCAUGUUCAAA [EX4 317: Super Stable 17]
**A:** 33.4

**Q:** Requested read-out: apparent KD of MS2 coat protein. Entry: AUCUCGUCAGGAUAUGACUACAUAAAAAAAAAAAAAUGUAGUCAGAAGGGACAUGAGGAUCACCCAUGUACCAA [HSL_Exclusion 4 64% 3]
**A:** 21.9

**Q:** Requested read-out: apparent KD of MS2 coat protein. Entry: AAGAAGGUAGGAUAUACAUGAGGAUCACCCAUGUAAAAGAAAGAAAGGGAAAAGAAAAGUAGAAGGACCAAGAA [Usermaatre Amenemope]
**A:** 23.5

**Q:** Requested read-out: apparent KD of MS2 coat protein. Entry: AAGAAGUCAGGAUAUGCCAGAGAUCAAGAAAGUGACGAAUAGCAGAAGGGACAUGAGGAUCACCCAUGUAAAGA [Opal 9]
**A:** 43.5

**Q:** Requested read-out: apparent KD of MS2 coat protein. Entry: AAAAAGUGAGGAUAUACGUUAAAAAAAAAAAAAAAAAAGCGGUAGAAGGCACAUGAGGAUCACCCAUGUAAAAA [Ex4 Malc#3]
**A:** 57.7

**Q:** Requested read-out: apparent KD of MS2 coat protein. Entry: AACAGUACAGGAUAUACAUGAGGAUCACCCAUGUGAGACUUAAGUGGCGUACCACAAAGUAGAAGGGUACUGGA [JL Maslow Revisted mod 8]
**A:** 84.1

**Q:** Requested read-out: apparent KD of MS2 coat protein. Entry: AAGAAGUGAGGAUAUCGAAAAGAAAAGAAAAGAAAAGAAAACGAGAAGGCACAUGAGGAUCACCCAUGUAAGAA [Setutre Darius I the Great]
**A:** 28.1

**Q:** Requested read-out: apparent KD of MS2 coat protein. Entry: ACUUAUGAAGGAUAUACUAACAACAUACACUCAACACACACACAUGAGGAUCACCCAUGUAGAAGGUCAAACAU [JR_Exc002_Sub1205]
**A:** 19.6

Data origin, for the record: the supplement of paper PMC9170038
